# TARGET_UNDER_TEST: recombinant USP30 (amino acids 57-517 of the human sequence) (Homo sapiens (Human), UniProt Q70CQ3)
# Sequence (Q70CQ3 57-517): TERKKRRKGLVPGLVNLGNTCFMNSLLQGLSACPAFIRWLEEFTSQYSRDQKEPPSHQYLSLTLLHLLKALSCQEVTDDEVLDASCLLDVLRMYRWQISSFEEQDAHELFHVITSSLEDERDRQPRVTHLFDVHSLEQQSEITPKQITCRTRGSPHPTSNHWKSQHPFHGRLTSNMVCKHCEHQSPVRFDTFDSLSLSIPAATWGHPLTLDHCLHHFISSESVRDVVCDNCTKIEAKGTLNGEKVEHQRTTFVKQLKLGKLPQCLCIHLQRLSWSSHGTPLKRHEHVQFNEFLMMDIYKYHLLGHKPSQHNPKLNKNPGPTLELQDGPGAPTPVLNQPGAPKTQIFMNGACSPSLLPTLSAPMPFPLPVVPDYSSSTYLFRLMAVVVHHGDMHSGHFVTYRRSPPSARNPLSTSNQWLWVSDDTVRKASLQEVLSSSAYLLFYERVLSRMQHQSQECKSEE
# EXPERIMENT: In vitro USP30 biochemical assay (Ubiquitin-Rhodamine substrate)
# MEASUREMENT_SETUP: […] recombinant USP30, 25 nM Ubiquitin-Rhodamine, fluorescence
MEASURED_METRIC: IC50

// solved cases for IC50 follow
CC(C)C[C@@H](NC(=O)c1ccc(F)cc1)C(=O)Nc1ccc(S(=O)(=O)NC(C)(C)CCO)cc1 [Compound I-21] :: > 10 µM
CC(=O)N1CCC(CC(NC(=O)c2ccc(F)cc2)C(=O)Nc2ccc(S(=O)(=O)NC(C)(C)C)cc2)CC1 (centres unmarked) [Compound I-101] :: < 0.05 µM
CC(C)CC[C@H](NC(=O)c1ccc(F)cc1)C(=O)Nc1ccc(S(=O)(=O)NC(C)(C)C)cc1 [Compound I-23] :: < 0.05 µM

Given CC(C)(C)NS(=O)(=O)c1cccc2c(NC[C@H](O)[C@H](Cc3ccccc3)NC(=O)c3ccc(F)cc3)cccc12 [Compound I-211] , state its recorded IC50.
> 10 µM

Entry under review: COc1cc(NC(=O)[C@H](CC2CCOCC2)NC(=O)c2ccc(F)cc2)ccc1S(=O)(=O)NC1CCCC1 [Compound I-87] . Reported IC50?
< 0.05 µM

Quick one: IC50 for CC(C)N1CCC(C[C@H](NC(=O)c2ccc(F)cc2)C(=O)Nc2ccc(S(=O)(=O)NC(C)(C)C)cc2)CC1 [Compound I-287] ?
< 0.05 µM

====

# TARGET_UNDER_TEST: recombinant USP30 (amino acids 57-517 of the human sequence) (Homo sapiens (Human))
# EXPERIMENT: In vitro USP30 biochemical assay (Ubiquitin-Rhodamine substrate)
# MEASUREMENT_SETUP: 1.5 nM recombinant USP30, 25 nM Ubiquitin-Rhodamine, fluorescence
MEASURED_METRIC: IC50

COc1cc(NC(=O)[C@H](CC2CCNCC2)NC(=O)c2ccc(F)cc2)ccc1S(=O)(=O)NC(C)(C)C :: 0.05 to 1 µM
COc1cc(NC(=O)[C@H](CC(C)C)NC(=O)c2ccc(F)cc2)ccc1S(=O)(=O)NC(C)(C)C :: 0.05 to 1 µM

Would you mind telling me what IC50 value was observed for O=C(NC(CC1CCNCC1)C(=O)Nc1ccc(S(=O)(=O)NC2COC2)cc1)c1ccc(F)cc1 (stereo not drawn) ?
0.05 to 1 µM

May I ask what IC50 has been recorded for "CN1CCC(C[C@H](NC(=O)c2ccc(F)cc2)C(=O)Nc2ccc(S(=O)(=O)N[C@@H]3CCOC3)cc2)CC1" ?
0.05 to 1 µM

Bench note: what IC50 did "CC(C)(CN1CCOCC1)NS(=O)(=O)c1ccc(NC(=O)[C@H](CCO)NC(=O)c2ccc(F)cc2)cc1" show?
1 to 10 µM

====

# TARGET_UNDER_TEST: USP30 (Homo sapiens (Human))
# Sequence (Q70CQ3 whole entry): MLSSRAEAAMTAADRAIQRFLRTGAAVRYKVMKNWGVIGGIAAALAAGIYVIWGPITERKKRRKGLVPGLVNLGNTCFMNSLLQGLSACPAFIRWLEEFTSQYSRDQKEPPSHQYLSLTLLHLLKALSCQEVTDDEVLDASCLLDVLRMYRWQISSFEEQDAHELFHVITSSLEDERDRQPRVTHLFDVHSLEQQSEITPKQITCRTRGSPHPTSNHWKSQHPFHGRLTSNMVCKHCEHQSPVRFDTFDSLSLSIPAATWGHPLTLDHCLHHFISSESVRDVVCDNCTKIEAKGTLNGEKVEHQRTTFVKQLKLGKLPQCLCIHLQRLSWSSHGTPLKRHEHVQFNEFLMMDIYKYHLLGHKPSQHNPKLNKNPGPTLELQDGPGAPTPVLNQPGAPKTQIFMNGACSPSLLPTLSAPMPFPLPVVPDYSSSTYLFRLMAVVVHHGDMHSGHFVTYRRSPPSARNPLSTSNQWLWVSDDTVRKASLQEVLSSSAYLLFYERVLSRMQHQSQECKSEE
# EXPERIMENT: Dundee MALDI-TOF mass spectrometry assay (K48-linked diubiquitin cleavage)
# Format: biochemical
# MEASUREMENT_SETUP: USP30 25 ng/μl, K48-linked diubiquitin 5.6 μM, read-out: USP30 IC50 μM (avg)
MEASURED_METRIC: IC50

I would be grateful if you could share the reported IC50 for "CN1CCC(C[C@H](NC(=O)c2ccc(F)cc2)C(=O)Nc2ccc(S(=O)(=O)N[C@@H]3CCOC3)cc2)CC1" .
0.05 to 1 µM

Would you kindly share the measured IC50 for "CC(C)(C)NS(=O)(=O)c1ccc(NC(=O)[C@H](Cc2ccccc2)NC(=O)C2CCOCC2)cc1" ?
0.05 to 1 µM

Name the reported IC50 value associated with the compound "CC(C)(C)NS(=O)(=O)c1ccc(NC(=O)[C@H](CC2CCNCC2)NC(=O)c2ccc(F)nc2)cc1"
0.05 to 1 µM

Which IC50 is listed for "CN1CCC(C[C@H](NC(=O)c2ccc(F)cn2)C(=O)Nc2ccc(S(=O)(=O)NC(C)(C)C(F)(F)F)cc2)CC1" ?
< 0.05 µM

Can you look up the measured IC50 of "CC(C)(C)NS(=O)(=O)c1ccc(NC(=O)[C@H](CC2CCNCC2)NC(=O)c2ccc(F)cn2)cc1" for me?
< 0.05 µM

Fill blank: measured IC50 of the compound "CC(C)(C)NS(=O)(=O)c1ccc(NC(=O)[C@H](CC2CCN(CCC(F)(F)F)CC2)NC(=O)c2ccc(F)cc2)cn1" is ____.
0.05 to 1 µM

For the compound "C[C@H](CO)NS(=O)(=O)c1ccc(NC(=O)[C@H](Cc2ccccc2)NC(=O)c2ccc(F)cc2)cn1" , what IC50 is on record?
< 0.05 µM

Param item = "O=C(N[C@@H](Cc1ccccc1)C(=O)Nc1ccc(S(=O)(=O)NC2(CF)CC2)cc1)c1ccc(F)cc1" ; retrieve measured IC50.
< 0.05 µM

Reported IC50, compound "COc1cc(NC(=O)[C@H](CC2CCOCC2)NC(=O)c2ccc(F)cc2)ccc1S(=O)(=O)NC(C)(C)CO" : ____
0.05 to 1 µM

====

# TARGET_UNDER_TEST: recombinant USP30 (amino acids 57-517 of the human sequence) (Homo sapiens (Human), UniProt Q70CQ3)
# EXPERIMENT: In vitro USP30 biochemical assay (Ubiquitin-Rhodamine substrate)
# MEASUREMENT_SETUP: […] recombinant USP30, 25 nM Ubiquitin-Rhodamine, fluorescence
Listed next: entries and their corresponding IC50.

CC(C)(C)NS(=O)(=O)c1ccc(NC(=O)C(Cc2ccccc2)c2nnc(-c3ccc(F)cc3)[nH]2)cc1 (centres unmarked) :: > 10 µM
CN1CCN(C(=O)N[C@@H](Cc2ccccc2)C(=O)Nc2cccc3c(S(=O)(=O)NC(C)(C)C)cccc23)CC1 :: > 10 µM
CC(C)(C)NS(=O)(=O)c1ccc(NC(=O)[C@H](CC2CCN(Cc3ccccc3)CC2)NC(=O)c2ccc(F)cc2)cc1 :: < 0.05 µM
CN1CC[C@@H](NC(=O)[C@H](Cc2ccccc2)NC(=O)c2ccc(F)cc2)C1 :: > 10 µM
CC(C)(C)NS(=O)(=O)c1ccc(NC(=O)C(Cc2ccccc2)c2nnc(-c3ccccc3)[nH]2)cc1 (centres unmarked) :: > 10 µM

Record request: IC50 value, item "CO[C@H]1C[C@@H](C(=O)Nc2ccc(S(=O)(=O)NC3COC3)cc2)N(C(=O)c2ccc(F)cc2)C1"
> 10 µM

Requested field: IC50. Item: "CO[C@@H]1C[C@@H](C(=O)Nc2ccc(S(=O)(=O)NC3COC3)cc2)N(C(=O)c2ccc(F)cc2)C1"
> 10 µM

Give its IC50 value. Item: "CC(C)(C)NS(=O)(=O)c1ccc(NC(=O)[C@H](CC2CCOCC2)NC(=O)c2ccc(F)cc2)cc1"
< 0.05 µM

Quick check: IC50 of "COCCN1CCC(C[C@H](NC(=O)c2ccc(F)cc2)C(=O)Nc2ccc(S(=O)(=O)NC(C)(C)C)cc2)CC1" ?
< 0.05 µM

Need IC50 of "CC(=O)O[C@H]1C[C@@H](C(=O)Nc2ccc(S(=O)(=O)N[C@@H]3CCOC3)cc2)N(C(=O)c2ccc(F)cc2)C1" , thanks.
> 10 µM

May I ask what IC50 has been recorded for "CC(C)(C)NS(=O)(=O)N1CC[C@@H](NC(=O)[C@H](Cc2ccccc2)NC(=O)c2ccc(F)cc2)C1" ?
> 10 µM

Fill in: IC50 of "O=C(N[C@@H](Cc1ccccc1)C(=O)N[C@@H]1CCN(S(=O)(=O)NC2COC2)C1)c1ccc(F)cc1" is ___
> 10 µM

What IC50 value was documented for this compound, "O=C(Nc1ccc(S(=O)(=O)NC2COC2)cc1)[C@@H]1C[C@H](O)CN1C(=O)c1ccc(F)cc1" ?
> 10 µM

Returns the measured IC50 for the input compound. Input: "CN1CCC(C[C@H](NC(=O)N2CCN(C)CC2)C(=O)Nc2ccc(S(=O)(=O)NC(C)(C)C)cc2)CC1"
> 10 µM

====

# TARGET_UNDER_TEST: recombinant USP30 (amino acids 57-517 of the human sequence) (Homo sapiens (Human))
# EXPERIMENT: In vitro USP30 biochemical assay (Ubiquitin-Rhodamine substrate)
# MEASUREMENT_SETUP: 1.5 nM recombinant USP30, 25 nM Ubiquitin-Rhodamine, fluorescence
MEASURED_METRIC: IC50

Query: IC50; subject: "CC(C)(CO)NS(=O)(=O)c1ccc(NC(=O)[C@@H](NC(=O)c2ccc(F)cc2)C2CC2)cc1"
1 to 10 µM

Quick one: IC50 of "CN1CCN(C(=O)N[C@@H](Cc2ccccc2)C(=O)Nc2ccc(S(=O)(=O)NC(C)(C)C)cc2)CC1" ?
1 to 10 µM

Can you look up the measured IC50 of "CC(=O)O[C@H]1C[C@@H](C(=O)Nc2ccc(S(=O)(=O)NC(C)(C)C)cc2)N(C(=O)c2ccc(F)cc2)C1" for me?
1 to 10 µM

# input compound: "CC(C)(C)NS(=O)(=O)c1ccc(NC(=O)[C@@H](NC(=O)c2ccc(F)cc2)C(C)(C)C)cc1" ; wanted: its IC50
1 to 10 µM

Query (compound): "CC(C)(C)NS(=O)(=O)c1ccc(NC(=O)[C@H](CC2CCN(CCC(F)(F)F)CC2)NC(=O)c2ccc(F)cc2)cn1" ; field requested: IC50
0.05 to 1 µM

Would you mind telling me what IC50 value was observed for "COCC[C@H](NC(=O)c1ccc(F)cc1)C(=O)Nc1ccc(S(=O)(=O)NC(C)(C)CN2CCOCC2)cc1" ?
1 to 10 µM

Endpoint output: IC50 of "CN1CCC(C[C@H](NC(=O)c2ccc(F)cc2)C(=O)Nc2ccc(S(=O)(=O)NC(C)(C)CF)cc2)CC1" . Value?
0.05 to 1 µM

This collection of values is drawn from patent US20250162989A1.
